test system: PI5P4Ks; assay: Cellular PI5P4Ks activity assay in HeLa cells (PIP4KII Activity Assay Kit); assay type: cell-based, human; conditions: HeLa cells treated 24 h, lysate assayed with PI(5)P; read-out: IC50, combined cellular PI5P4Ks
measurementType: IC50 (nM)
Expressed in nM, but write only the number.

[Q] Which measured IC50 belongs to `N#C/C(=C\c1cccc2cnccc12)c1c[nH]c2ccccc12` , tested on PI5P4Ks?
[A] 600

====

biological target: PI5P4Kα (Homo sapiens, UniProt P48426)
Sequence (P48426 whole entry): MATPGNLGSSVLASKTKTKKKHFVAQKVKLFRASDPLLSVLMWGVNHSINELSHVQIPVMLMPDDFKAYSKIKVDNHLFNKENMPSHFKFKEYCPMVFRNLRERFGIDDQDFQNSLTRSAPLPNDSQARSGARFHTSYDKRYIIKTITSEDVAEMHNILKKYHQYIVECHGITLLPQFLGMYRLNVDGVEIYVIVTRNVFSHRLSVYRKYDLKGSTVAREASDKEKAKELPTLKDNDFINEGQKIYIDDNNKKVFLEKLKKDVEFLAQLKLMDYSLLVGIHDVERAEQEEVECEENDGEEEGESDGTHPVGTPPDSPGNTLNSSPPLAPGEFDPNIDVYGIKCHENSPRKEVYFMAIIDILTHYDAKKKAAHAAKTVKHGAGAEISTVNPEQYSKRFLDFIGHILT
measurementType: pIC50
Remember the convention: pIC50 equals -log10 of concentration in molar.

[Q] Would you kindly share the measured pIC50 for `COc1cc(/C=C(\C#N)C(=O)c2ccc(O)c(O)c2)cc(I)c1O` ?
[A] 5.68
